Test system: HaCaT
protocolDetails: Cytotoxicity against human HaCaT cells at 1.56 to 6.25 uM after 24 hrs by MTT assay
Format: cell-based
Where a SMILES comes first, the peptide text is derived from it. [ ]: non-standard residue; d: D form. Aic = NC1(C(=O)O)Cc2ccccc2C1

compound	Activity
CC[C@H](C)[C@H](NC(=O)[C@H](CCCNC(=N)N)NC(=O)[C@@H]1C[C@@H](O)CN1C(=O)[C@@H](CC(C)C)NC(=O)[C@H](Cc1ccccc1)NC(=O)[C@H](CCCCN)NC(=O)[C@H](CO)NC(=O)[C@H](Cc1ccccc1)NC(=O)[C@H](Cc1c[nH]c2ccccc12)NC(=O)[C@@H]1CCCN1C(=O)[C@@H](NC(=O)[C@@H](N)Cc1ccccc1)C(C)C)C(=O)N[C@@H](CC(C)C)C(N)=O	Non-Toxic
CC[C@H](C)[C@H](NC(=O)[C@H](CCCNC(=N)N)NC(=O)C1(NC(=O)[C@@H](CC(C)C)NC(=O)[C@H](Cc2ccccc2)NC(=O)[C@H](CCCCN)NC(=O)[C@H](CO)NC(=O)[C@H](Cc2ccccc2)NC(=O)[C@H](Cc2c[nH]c3ccccc23)NC(=O)[C@@H]2CCCN2C(=O)[C@@H](NC(=O)[C@@H](N)Cc2ccccc2)C(C)C)Cc2ccccc2C1)C(=O)N[C@@H](CC(C)C)C(N)=O (H-FVPWFSKF[dL][Aic]RIL-NH2)	Non-Toxic

###

Test system: HaCaT
protocolDetails: Cytotoxicity against human HaCaT cells at 12.5 uM after 24 hrs by MTT assay relative to control
Assay type: cell-based
Where a SMILES comes first, the peptide text is derived from it. [ ]: non-standard residue; d: D form.
Kindly supply the reported Activity values for the records listed here.
One number for each entry, in %.

Example entries begin here.
compound	unitText	observedResult
CC[C@H](C)[C@H](NC(=O)[C@H](CCCNC(=N)N)NC(=O)CNC(=O)[C@@H](CC(C)C)NC(=O)[C@H](Cc1ccccc1)NC(=O)[C@H](CCCCN)NC(=O)[C@H](CO)NC(=O)[C@H](Cc1ccccc1)NC(=O)[C@H](Cc1c[nH]c2ccccc12)NC(=O)[C@@H]1CCCN1C(=O)[C@@H](NC(=O)[C@@H](N)Cc1ccccc1)C(C)C)C(=O)N[C@@H](CC(C)C)C(N)=O (H-FVPWFSKF[dL]GRIL-NH2)	%	20.63
CCCC[C@H](NC(=O)[C@@H](CC(C)C)NC(=O)[C@H](Cc1ccccc1)NC(=O)[C@H](CCCCN)NC(=O)[C@H](CO)NC(=O)[C@H](Cc1ccccc1)NC(=O)[C@H](Cc1c[nH]c2ccccc12)NC(=O)[C@@H]1CCCN1C(=O)[C@@H](NC(=O)[C@@H](N)Cc1ccccc1)C(C)C)C(=O)N[C@@H](CCCNC(=N)N)C(=O)NC(C(=O)N[C@@H](CC(C)C)C(N)=O)[C@@H](C)CC (single isomer, unassigned)	%	12.25

Q. Query for HaCaT: what Activity does the record show for CC[C@H](C)[C@H](NC(=O)[C@H](CCCNC(=N)N)NC(=O)[C@@H]1CCCN1C(=O)[C@@H](CC(C)C)NC(=O)[C@H](Cc1ccccc1)NC(=O)[C@H](CCCCN)NC(=O)[C@H](CO)NC(=O)[C@H](Cc1ccccc1)NC(=O)[C@H](Cc1c[nH]c2ccccc12)NC(=O)[C@@H]1CCCN1C(=O)[C@@H](NC(=O)[C@@H](N)Cc1ccccc1)C(C)C)C(=O)N[C@@H](CC(C)C)C(N)=O (H-FVPWFSKF[dL]PRIL-NH2) ?
A. 16.15

Where do these numbers come from? They come from ChEMBL document CHEMBL4130416.
